Here, each record is paired with measured melting point data.

As a guide, the following entries are already answered.
- CHEMICAL STRUCTURE: "Fc1ccc(/C=C/c2ccccc2F)cc1F"
  RECORDED VALUE: "85 to 86 °C"
- CHEMICAL STRUCTURE: "Fc1ccc(F)c(/C=C/c2ccccc2F)c1"
  RECORDED VALUE: "79 to 81 °C"
- CHEMICAL STRUCTURE: "COc1cccc(/C=C/c2ccccc2OC)c1"
  RECORDED VALUE: "49 to 50 °C"

Item Fc1cccc(/C=C/c2ccc(F)c(F)c2)c1 has what recorded melting point?
48 to 49 °C

###

Let's look at some compounds and their measured melting point.

// below: answered compounds
- CHEMICAL STRUCTURE: "Cc1ccc(/C=C/c2ccc(F)c(F)c2)cc1"
  OBSERVABLE: "melting point"
  RECORDED VALUE: "90 to 92 °C"
- CHEMICAL STRUCTURE: "Cc1ccc(/C=C/c2ccc(F)cc2F)cc1"
  OBSERVABLE: "melting point"
  RECORDED VALUE: "72 to 73 °C"
- CHEMICAL STRUCTURE: "Fc1ccc(/C=C/c2ccccc2F)c(F)c1"
  OBSERVABLE: "melting point"
  RECORDED VALUE: "84 to 85 °C"

Fill in the blank: the reported melting point of COc1cccc(/C=C/c2ccc(C)cc2)c1OC is ____.
38 to 40 °C

Need melting point of Fc1cccc(/C=C/c2cc(F)ccc2F)c1 , thanks.
73 to 74 °C

# melting point lookup, item COc1ccc(/C=C/c2ccc(F)c(F)c2)cc1
73 to 74 °C

Given the entry Fc1ccc(/C=C/c2cc(F)ccc2F)cc1 , report its measured melting point.
76 to 77 °C

Find the recorded melting point belonging to COc1ccc(/C=C/c2cc(F)ccc2F)cc1 and report it.
109 to 110 °C

# input compound: COc1cccc(/C=C/c2ccc(C(F)(F)F)cc2)c1OC ; wanted: its melting point
67 to 69 °C

Name the recorded melting point for COc1ccccc1/C=C/c1ccccc1F .
34 to 35 °C

Fill in: melting point of COc1cccc(/C=C/c2ccc(F)cc2)c1OC is ___
50 to 51 °C

Query (compound): COc1ccc(OC)c(/C=C/c2ccc(F)cc2)c1 ; field requested: melting point
58 to 59 °C

Which melting point value is on record for COc1cccc(/C=C/c2cc(OC)ccc2OC)c1 ?
48 to 49 °C

Which value of melting point has been reported for Fc1cccc(/C=C/c2ccc(F)cc2F)c1 in the records?
60 to 61 °C
